As shown below, each of these compounds has a reported Ki value.
- test_target: mouse TAAR1 (Mus musculus (Mouse), UniProt Q923Y8)
- Sequence (Q923Y8 whole entry): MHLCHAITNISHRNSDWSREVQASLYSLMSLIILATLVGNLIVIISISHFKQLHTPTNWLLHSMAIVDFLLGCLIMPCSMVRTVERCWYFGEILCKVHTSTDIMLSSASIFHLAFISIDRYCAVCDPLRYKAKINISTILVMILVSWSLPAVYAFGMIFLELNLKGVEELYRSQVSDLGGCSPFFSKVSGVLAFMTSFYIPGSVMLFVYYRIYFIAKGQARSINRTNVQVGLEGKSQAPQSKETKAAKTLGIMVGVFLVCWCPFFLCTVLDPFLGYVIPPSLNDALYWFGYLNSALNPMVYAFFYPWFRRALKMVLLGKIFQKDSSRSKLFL
- experiment: Radioligand binding assay on mouse TAAR1
Provide the reading as a plain figure in nM.

The cases that follow already have their Ki on record.
Task: Return Ki measured with mouse TAAR1 (Mus musculus (Mouse), UniProt Q923Y8) given this compound: `O=C(Nc1ccc([C@@H]2O[C@H]3CN[C@@H]2C3)cc1)c1ccc(C(F)(F)F)cn1`
Result: 5.4

Task: Try `O=C(Nc1ccc([C@H]2O[C@@H]3CN[C@H]2C3)cc1)c1ccc(OCC(F)(F)F)nc1` next.
Result: 11.8

Task: Try `O=C(Nc1ccc([C@@H]2O[C@H]3CN[C@@H]2C3)cc1)c1ccc(OCC2CC2)cc1` next.
Result: 6.7

Task: Try `CCCCNc1ccc([C@H]2O[C@@H]3CN[C@H]2C3)cc1` next.
Result: 22.2

Task: Try `O=C(Nc1ccc([C@H]2O[C@@H]3CN[C@H]2C3)cc1)c1ccc(Cl)cc1` next.
Result: 5

Task: Try `O=C(COCCC(F)(F)F)Nc1ccc([C@H]2O[C@@H]3CN[C@H]2C3)cc1` next.
Result: 9.4

Next:
Task: Return Ki measured with mouse TAAR1 (Mus musculus (Mouse), UniProt Q923Y8) given this compound: `FC(F)(F)c1cnc(Nc2ccc([C@H]3O[C@@H]4CN[C@H]3C4)cc2)cn1`
Result: 7.6

Task: Try `CCOc1ccc(C(=O)Nc2ccc([C@@H]3O[C@H]4CN[C@@H]3C4)cc2)cc1` next.
Result: 4.3
